Source: PubChem BioAssay (NCI)

# Test system: MCF7 breast
# test summary: NCI-60 one-dose screen, 48 h (100 = growth as untreated, 0 = no growth, -100 = all killed)
# protocol conditions: 10 µM unless noted
This is part of a sample that, as a whole, favours compounds with a hit. Of some 83,000 tested, about 20% had one in any assay. Activity calls are given as the source filed them. The calls were made as follows: active = growth percent below 10; inactive = the rest.
// growth lookup, one value per entry

Previously resolved entries follow.
{"compound": "O=c1[nH]c(N2CCC(Cc3ccccc3)CC2)nc2sc3c(c12)CCCC3", "system": "MCF7 breast", "assay value": "98.1% (inactive)"}
{"compound": "CN1C(=O)C(C2=NN(C=O)C(c3ccc(F)cc3)C2)C(=O)N(C)C1=O (stereo not drawn)", "system": "MCF7 breast", "assay value": "93.4% (inactive)"}

Now for the compound whose growth we want.
Q: GET /values?readout=growth&system=MCF7 breast&item= "COc1ccc(-c2cc(-c3cccnc3)nc(S(=O)(=O)CC(=O)Nc3ccc(C)cc3)c2C#N)cc1OC"
Result: 88.4% (inactive)

* * *

// growth lookup, one value per entry
# System: CAKI-1 renal
# test summary: NCI-60 one-dose screen, 48 h (100 = growth as untreated, 0 = no growth, -100 = all killed)
# protocol conditions: 10 µM unless noted
The panel holds about 83,000 compounds, 20% with a hit somewhere; the sample as a whole holds those more often.
Reply numerically in %, unit not repeated.

Previously resolved entries follow.
{"compound": "CCN(CC)c1ccc(N=C2C=CC(=O)C=C2NC(C)=O)cc1", "unit info": "%", "assay value": 105}
{"compound": "Cc1ccc(C(=O)Cc2ccccc2)c(O)c1", "unit info": "%", "assay value": 95}
{"compound": "Cc1ccc2nc3c(n2c1)C(=O)C(=O)c1ccccc1-3", "unit info": "%", "assay value": -83}

Q: GET /values?readout=growth&system=CAKI-1 renal&item= CC(NC(N)=S)c1ccccc1 (stereo not drawn)
Result: 104

Q: GET /values?readout=growth&system=CAKI-1 renal&item= "Nc1nc(Nc2ccccc2SSc2ccccc2Nc2nc(N)nc(-c3cccc(Cl)c3)n2)nc(-c2cccc(Cl)c2)n1"
Result: 75.5

Q: GET /values?readout=growth&system=CAKI-1 renal&item= "O=[N+]([O-])c1ccc2[nH]cc(-c3c4ccccc4cc4[nH]c5ccc([N+](=O)[O-])cc5c34)c2c1"
Result: 25.3

Q: GET /values?readout=growth&system=CAKI-1 renal&item= "COc1cc(/C=C/C(=O)c2c(C)n([O-])c3ccc(Cl)cc3[n+]2=O)cc(OC)c1OC"
Result: 107

Q: GET /values?readout=growth&system=CAKI-1 renal&item= "O=C1Nc2ccc(Cl)cc2/C1=C/c1cccs1"
Result: 79.5

Q: GET /values?readout=growth&system=CAKI-1 renal&item= CC(NNC(=S)N1CCCCCC1)c1ccc2ccccc2n1 (stereo not drawn)
Result: -9.22

Q: GET /values?readout=growth&system=CAKI-1 renal&item= "O=C(O)c1ccc2cccnc2c1O"
Result: 4.24

Q: GET /values?readout=growth&system=CAKI-1 renal&item= "O=[N+]([O-])c1ccc(N=Nc2c(Cl)cc(O)cc2Cl)cc1"
Result: -11.9

Q: GET /values?readout=growth&system=CAKI-1 renal&item= CCCCCCCCCCCCC1CCCC(C)C1 (stereo not drawn)
Result: 88.2

Q: GET /values?readout=growth&system=CAKI-1 renal&item= CC1CN(CC(O)c2ccc(Br)cc2)CCO1 (stereo not drawn)
Result: 103
